target: RPS6KA5 KD2 (human); test: KINOMEscan competition binding; details: compound 10.0 µM
# kinase still bound, per cent of control per record follows
Please respond with the number in % and leave the unit unwritten.

Some entries whose results are on file:
>>> value("Cn1c(=O)n(-c2ccc(C(C)(C)C#N)cc2)c2c3cc(-c4cnc5ccccc5c4)ccc3ncc21")
100
>>> value("OCCCNc1cc(-c2ccnc(Nc3cccc(Cl)c3)n2)ccn1")
100
>>> value("COc1cc(C(=O)NC2CCN(C)CC2)ccc1Nc1ncc2c(n1)N(C1CCCC1)C(C)CC(=O)N2C (stereo unspecified)")
100
>>> value("Nc1ccc(-c2ccc3ncc4ccc(=O)n(-c5cccc(C(F)(F)F)c5)c4c3c2)cn1")
100
>>> value("COc1cc(C(=O)NC2CCN(C)CC2)ccc1Nc1ncc2c(n1)N(C1CCCC1)CCC(=O)N2C(C)C")
100

Exam item: Fill in the blank: the reported kinase still bound, per cent of control of `Cc1ccc(NC(=O)c2cccc(C(C)(C)C#N)c2)cc1Nc1ccc2ncn(C)c(=O)c2c1` is ____.
Marked response: 100

Exam item: Fill in the blank: the reported kinase still bound, per cent of control of `O=C(NOC[C@H](O)CO)c1ccc(F)c(F)c1Nc1ccc(I)cc1F` is ____.
Marked response: 100

Exam item: Fill in the blank: the reported kinase still bound, per cent of control of `CCC(=O)N1CCN(c2ccc(-n3c(=O)ccc4cnc5ccc(-c6cnc7ccccc7c6)cc5c43)cc2C(F)(F)F)CC1` is ____.
Marked response: 100

Exam item: Fill in the blank: the reported kinase still bound, per cent of control of `O=C1Nc2ccc(I)cc2/C1=C/c1cc(Br)c(O)c(Br)c1` is ____.
Marked response: 63

Exam item: Fill in the blank: the reported kinase still bound, per cent of control of `CCOc1cc2ncc(C#N)c(Nc3ccc(OCc4ccccn4)c(Cl)c3)c2cc1NC(=O)/C=C/CN(C)C` is ____.
Marked response: 77

Exam item: Fill in the blank: the reported kinase still bound, per cent of control of `CCCS(=O)(=O)Nc1ccc(F)c(C(=O)c2c[nH]c3ncc(-c4ccc(Cl)cc4)cc23)c1F` is ____.
Marked response: 100

---

# kinase still bound, per cent of control per record follows
system: CPK1 (P.falciparum); experiment: KINOMEscan competition binding; conditions: compound 10.0 µM
Please respond with the number in % and leave the unit unwritten.

Some entries whose results are on file:
>>> value("Cc1ccc2nc(NCCN)c3ncc(C)n3c2c1")
52
>>> value("O=C(NC1CC1)c1cccc(-c2ccc3c(NC(=O)C4CC4)n[nH]c3c2)c1")
18
>>> value("CCCS(=O)(=O)Nc1ccc(F)c(C(=O)c2c[nH]c3ncc(-c4ccc(Cl)cc4)cc23)c1F")
0

Exam item: Fill in the blank: the reported kinase still bound, per cent of control of `CCN1CCN(Cc2ccc(Nc3ncc4c(n3)N(C)c3ccccc3C(=O)N4C)cc2C(F)(F)F)CC1` is ____.
Marked response: 74

Exam item: Fill in the blank: the reported kinase still bound, per cent of control of `N#Cc1c(NC(=O)c2cccc3ccccc23)sc2c1CCCC2` is ____.
Marked response: 81

---

biological target: STK17B (human) (UniProt O94768); experiment: KINOMEscan competition binding; details: compound 10.0 µM
Sequence (O94768 whole entry, looked up): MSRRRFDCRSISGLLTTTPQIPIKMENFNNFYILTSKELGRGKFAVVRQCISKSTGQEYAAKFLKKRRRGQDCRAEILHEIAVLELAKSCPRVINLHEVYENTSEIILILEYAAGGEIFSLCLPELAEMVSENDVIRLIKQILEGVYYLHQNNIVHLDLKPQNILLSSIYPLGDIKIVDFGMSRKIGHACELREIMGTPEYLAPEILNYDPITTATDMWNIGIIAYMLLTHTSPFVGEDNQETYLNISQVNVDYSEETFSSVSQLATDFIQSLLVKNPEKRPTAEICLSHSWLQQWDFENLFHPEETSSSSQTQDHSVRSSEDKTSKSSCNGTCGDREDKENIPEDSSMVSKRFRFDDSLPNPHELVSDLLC
# kinase still bound, per cent of control per record follows
Please respond with the number in % and leave the unit unwritten.

Some entries whose results are on file:
>>> value("Cc1ccc2nc(NCCN)c3ncc(C)n3c2c1")
100
>>> value("C=CC(=O)Nc1cc(NC(=O)c2ccc(C)c(NC(=O)c3ccno3)c2)cc(C(F)(F)F)c1")
89
>>> value("O=C(O)c1ccc(Nc2ncc3c(n2)-c2ccc(Cl)cc2C(c2c(F)cccc2F)=NC3)cc1")
8.6
>>> value("CCN1CCN(Cc2ccc(Nc3ncc4c(n3)N(C)c3ccccc3C(=O)N4C)cc2C(F)(F)F)CC1")
100

For the next question, use this compound.
Exam item: Fill in the blank: the reported kinase still bound, per cent of control of `C=CC(=O)Nc1cccc(Nc2nc(N[C@H]3CC[C@H](N(C)C)CC3)nc3c2ncn3C(C)C)c1` is ____.
Marked response: 22

---

# kinase still bound, per cent of control per record follows
target: STK38 (human); experiment: KINOMEscan competition binding; conditions: compound 10.0 µM

>>> value("O=C(O)c1ccc(Nc2ncc3c(n2)-c2ccc(Cl)cc2C(c2c(F)cccc2F)=NC3)cc1")
"100%"
>>> value("Cc1cc([C@@H](C)Nc2ccccc2C(=O)O)c2nc(N3CCOCC3)cc(=O)n2c1")
"100%"
>>> value("COc1cc(C(=O)NC2CCN(C)CC2)ccc1Nc1ncc2c(n1)N(C1CCCC1)CCC(=O)N2C(C)C")
"100%"
>>> value("C=CC(=O)Nc1cc(NC(=O)c2ccc(C)c(NC(=O)c3ccno3)c2)cc(C(F)(F)F)c1")
"90%"
>>> value("OCCCNc1cc(-c2ccnc(Nc3cccc(Cl)c3)n2)ccn1")
"100%"

For the next question, use this molecule.
Exam item: Fill in the blank: the reported kinase still bound, per cent of control of `CN(C)C/C=C/C(=O)Nc1cccc(Nc2ncc3c(n2)N(C)c2ccccc2C(=O)N3C)c1` is ____.
Marked response: 74%

---

biological target: MAP3K6 (human); assay: KINOMEscan competition binding; settings: compound 10.0 µM
# kinase still bound, per cent of control per record follows

Some entries whose results are on file:
>>> value("O=C1Nc2ccc(I)cc2/C1=C/c1cc(Br)c(O)c(Br)c1")
"100%"
>>> value("CCN1CCN(Cc2ccc(Nc3ncc4c(n3)N(C)c3ccccc3C(=O)N4C)cc2C(F)(F)F)CC1")
"100%"
>>> value("COc1cc(N2CCN(C)CC2)ccc1Nc1nc(N)c(C(=O)c2c(Cl)cccc2Cl)s1")
"100%"
>>> value("N#Cc1c(NC(=O)c2cccc3ccccc23)sc2c1CCCC2")
"93%"
>>> value("C=CC(=O)Nc1cc(NC(=O)c2ccc(C)c(NC(=O)c3ccno3)c2)cc(C(F)(F)F)c1")
"83%"
>>> value("Cc1cc([C@@H](C)Nc2ccccc2C(=O)O)c2nc(N3CCOCC3)cc(=O)n2c1")
"95%"

Exam item: Lab request: please report kinase still bound, per cent of control under test system MAP3K6 (human) for `Nc1ccc(-c2ccc3ncc4ccc(=O)n(-c5cccc(C(F)(F)F)c5)c4c3c2)cn1`
Marked response: 100%

Exam item: Lab request: please report kinase still bound, per cent of control under test system MAP3K6 (human) for `COc1cc(C(=O)NC2CCN(C)CC2)ccc1Nc1ncc2c(n1)N(C1CCCC1)CCC(=O)N2C(C)C`
Marked response: 100%

Exam item: Lab request: please report kinase still bound, per cent of control under test system MAP3K6 (human) for `Cc1ccc(NC(=O)c2cccc(C(C)(C)C#N)c2)cc1Nc1ccc2ncn(C)c(=O)c2c1`
Marked response: 100%

---

# kinase still bound, per cent of control per record follows
target: UniProt:O00750; test: KINOMEscan competition binding; conditions: compound 10.0 µM
Sequence (O00750 whole entry, looked up): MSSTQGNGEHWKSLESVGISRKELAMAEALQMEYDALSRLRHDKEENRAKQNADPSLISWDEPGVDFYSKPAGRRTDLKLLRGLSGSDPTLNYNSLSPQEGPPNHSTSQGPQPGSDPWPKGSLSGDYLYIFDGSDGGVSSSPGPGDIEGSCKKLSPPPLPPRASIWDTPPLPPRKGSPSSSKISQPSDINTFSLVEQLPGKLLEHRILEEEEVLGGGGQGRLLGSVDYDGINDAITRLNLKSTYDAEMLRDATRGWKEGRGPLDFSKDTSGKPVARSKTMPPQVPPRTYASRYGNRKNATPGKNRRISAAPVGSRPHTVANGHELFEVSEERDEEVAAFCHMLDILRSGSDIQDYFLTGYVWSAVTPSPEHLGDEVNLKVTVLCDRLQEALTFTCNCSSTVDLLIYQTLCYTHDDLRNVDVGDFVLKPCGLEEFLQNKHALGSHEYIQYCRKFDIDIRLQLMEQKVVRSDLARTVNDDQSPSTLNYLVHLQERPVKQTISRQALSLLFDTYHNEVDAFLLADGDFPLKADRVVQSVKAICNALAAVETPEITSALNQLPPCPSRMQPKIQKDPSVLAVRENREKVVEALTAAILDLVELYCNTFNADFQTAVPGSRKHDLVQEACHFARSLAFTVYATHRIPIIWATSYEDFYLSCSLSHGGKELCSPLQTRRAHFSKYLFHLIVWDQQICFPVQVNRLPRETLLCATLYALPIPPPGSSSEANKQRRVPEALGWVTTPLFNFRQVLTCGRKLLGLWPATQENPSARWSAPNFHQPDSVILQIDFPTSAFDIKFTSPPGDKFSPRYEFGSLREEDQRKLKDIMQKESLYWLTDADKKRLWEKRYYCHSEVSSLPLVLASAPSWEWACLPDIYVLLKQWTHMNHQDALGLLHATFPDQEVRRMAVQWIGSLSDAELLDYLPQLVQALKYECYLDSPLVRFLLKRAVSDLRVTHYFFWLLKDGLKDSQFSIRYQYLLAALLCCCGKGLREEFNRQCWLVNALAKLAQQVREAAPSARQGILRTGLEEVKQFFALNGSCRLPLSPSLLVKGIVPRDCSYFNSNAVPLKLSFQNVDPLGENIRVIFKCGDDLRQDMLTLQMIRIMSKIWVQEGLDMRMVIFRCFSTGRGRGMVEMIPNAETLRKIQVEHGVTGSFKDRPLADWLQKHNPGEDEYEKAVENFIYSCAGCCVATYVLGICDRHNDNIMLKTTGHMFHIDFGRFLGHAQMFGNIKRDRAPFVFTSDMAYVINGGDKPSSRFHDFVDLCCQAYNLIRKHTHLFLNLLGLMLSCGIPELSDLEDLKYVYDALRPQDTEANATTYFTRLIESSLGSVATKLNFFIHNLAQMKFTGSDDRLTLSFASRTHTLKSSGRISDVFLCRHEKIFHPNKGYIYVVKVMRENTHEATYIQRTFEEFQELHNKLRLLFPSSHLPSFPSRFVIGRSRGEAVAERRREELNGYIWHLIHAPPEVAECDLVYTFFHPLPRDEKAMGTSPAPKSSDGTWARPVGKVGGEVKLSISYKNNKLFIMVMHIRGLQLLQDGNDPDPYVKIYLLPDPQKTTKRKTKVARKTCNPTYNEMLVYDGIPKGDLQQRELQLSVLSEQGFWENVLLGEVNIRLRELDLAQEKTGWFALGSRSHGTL
Answer format: value, then unit.

Some entries whose results are on file:
>>> value("O=C(NC1CC1)c1cccc(-c2ccc3c(NC(=O)C4CC4)n[nH]c3c2)c1")
"83%"
>>> value("COc1cc(N2CCN(C)CC2)ccc1Nc1nc(N)c(C(=O)c2c(Cl)cccc2Cl)s1")
"98%"
>>> value("C=CC(=O)Nc1cccc(Oc2nc(Nc3ccc(N4CCN(C)CC4)cc3OC)ncc2Cl)c1")
"100%"
>>> value("O=C1Nc2ccc(I)cc2/C1=C/c1cc(Br)c(O)c(Br)c1")
"10%"
>>> value("CCOc1cc2ncc(C#N)c(Nc3ccc(OCc4ccccn4)c(Cl)c3)c2cc1NC(=O)/C=C/CN(C)C")
"100%"
>>> value("CC[C@@H]1C(=O)N(C)c2cnc(Nc3ccc(C(=O)NC4CCN(C)CC4)cc3OC)nc2N1C1CCCC1")
"100%"

Exam item: Fill in the blank: the reported kinase still bound, per cent of control of `C=CC(=O)Nc1cc(NC(=O)c2ccc(C)c(NC(=O)c3ccno3)c2)cc(C(F)(F)F)c1` is ____.
Marked response: 100%

Exam item: Fill in the blank: the reported kinase still bound, per cent of control of `C=CC(=O)Nc1cccc(Nc2nc(N[C@H]3CC[C@H](N(C)C)CC3)nc3c2ncn3C(C)C)c1` is ____.
Marked response: 100%

Exam item: Fill in the blank: the reported kinase still bound, per cent of control of COc1cc(C(=O)NC2CCN(C)CC2)ccc1Nc1ncc2c(n1)N(C1CCCC1)C(C)CC(=O)N2C (centres undefined) is ____.
Marked response: 100%

Exam item: Fill in the blank: the reported kinase still bound, per cent of control of `Nc1ccc(-c2ccc3ncc4ccc(=O)n(-c5cccc(C(F)(F)F)c5)c4c3c2)cn1` is ____.
Marked response: 37%

Exam item: Fill in the blank: the reported kinase still bound, per cent of control of `O=C(O)c1ccc(Nc2ncc3c(n2)-c2ccc(Cl)cc2C(c2c(F)cccc2F)=NC3)cc1` is ____.
Marked response: 93%

Exam item: Fill in the blank: the reported kinase still bound, per cent of control of `N#Cc1c(NC(=O)c2cccc3ccccc23)sc2c1CCCC2` is ____.
Marked response: 100%

Exam item: Fill in the blank: the reported kinase still bound, per cent of control of `OCCCNc1cc(-c2ccnc(Nc3cccc(Cl)c3)n2)ccn1` is ____.
Marked response: 100%
